The origin of these recorded values is patent US7972815B2.

Exercise: state measured Relative activity (%) for each of the compounds provided.
biological target: β1,3-N-acetylglucosaminyl transferase (G7) (Homo sapiens); construct: made in house; host or cells: Sf21 insect cells infected with recombinant baculovirus from pVL1393-F2G7; test: Substrate specificity of G7 with pyridylaminated oligosaccharides; type: biochemical; settings: pyridylaminated substrate, 37° C., 16 hours, activity for LNnT defined as 100%
Sequence (Q9C0J1 56-378): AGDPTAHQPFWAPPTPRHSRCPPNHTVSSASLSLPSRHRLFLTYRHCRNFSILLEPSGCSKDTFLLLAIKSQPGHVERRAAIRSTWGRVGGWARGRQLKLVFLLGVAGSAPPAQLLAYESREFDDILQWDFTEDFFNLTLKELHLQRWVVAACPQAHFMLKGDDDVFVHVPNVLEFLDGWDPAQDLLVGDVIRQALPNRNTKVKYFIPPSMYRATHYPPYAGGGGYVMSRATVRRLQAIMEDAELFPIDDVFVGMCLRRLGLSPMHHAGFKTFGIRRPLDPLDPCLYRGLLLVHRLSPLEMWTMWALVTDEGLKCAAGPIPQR
Write the value in % as a bare number.

For β1,3-N-acetylglucosaminyl transferase (G7) (Homo sapiens), give Relative activity (%) of the listed compound: `CC(=O)N[C@H]1[C@H](O[C@H]2[C@@H](O)[C@@H](CO)O[C@@H](O[C@@H]([C@H](O[C@@H]3O[C@@H](C)[C@@H](O)[C@@H](O)[C@@H]3O)[C@@H](O)C=O)[C@H](O)CO)[C@@H]2O)O[C@H](CO)[C@@H](O[C@@H]2O[C@@H](C)[C@@H](O)[C@@H](O)[C@@H]2O)[C@@H]1O[C@@H]1O[C@H](CO)[C@H](O)[C@H](O)[C@H]1O`
0

For β1,3-N-acetylglucosaminyl transferase (G7) (Homo sapiens), give Relative activity (%) of the listed compound: CC(=O)N[C@H]1[C@H](O[C@H]2[C@@H](O)[C@@H](CO)O[C@@H](O[C@H]3[C@H](O)[C@@H](O)C(O)O[C@@H]3CO)[C@@H]2O)O[C@H](CO)[C@@H](O)[C@@H]1O[C@@H]1O[C@H](CO)[C@H](O)[C@H](O)[C@H]1O (stereo partly shown)
7.6

For β1,3-N-acetylglucosaminyl transferase (G7) (Homo sapiens), give Relative activity (%) of the listed compound: `CC(=O)N[C@H]1[C@H](O[C@H]2[C@@H](O)[C@@H](CO)O[C@@H](O[C@@H]([C@H](O)[C@@H](O)C=O)[C@H](O)CO)[C@@H]2O)O[C@H](CO)[C@@H](O[C@@H]2O[C@@H](C)[C@@H](O)[C@@H](O)[C@@H]2O)[C@@H]1O[C@@H]1O[C@H](CO)[C@H](O)[C@H](O)[C@H]1O`
0

For β1,3-N-acetylglucosaminyl transferase (G7) (Homo sapiens), give Relative activity (%) of the listed compound: CC(=O)N[C@H]1[C@H](O[C@H]2[C@@H](O)[C@@H](CO)O[C@@H](O[C@H]3[C@H](O)[C@@H](O)C(O)O[C@@H]3CO)[C@@H]2O)O[C@H](CO)[C@@H](O[C@@H]2O[C@H](CO)[C@H](O)[C@H](O)[C@H]2O)[C@@H]1O (mixture of isomers)
100
